For each record, write down the corresponding cell viability.
tested on: SEM cells; assay: cell viability relative to DMSO control; higher = less cytotoxic; conditions: RPMI 5 mM glucose + 10% FBS; 48 h; 0.00234 µM
The figure you give is taken to be in %; do not add the unit.

Lab note: CC(O)C1C2C(C)\C(=C(/N2C1=O)C(O)=O)SC3CNC(C3)C(=O)N(C)C (centres undefined) gave cell viability of 77.2

Lab note: CCCC1OC2C[C@H]3[C@@H]4CCC5=CC(=O)C=C[C@]5(C)[C@H]4C(O)C[C@]3(C)[C@]2(C(=O)CO)O1 (some centres undefined) gave cell viability of 125

Lab note: `c1ccc(-c2oc3ncnc(NC[C@@H]4CCCO4)c3c2-c2ccccc2)cc1` gave cell viability of 112

Lab note: `CCNC(=O)Nc1ccc2ncc(Nc3ccc(C)cc3)nc2n1` gave cell viability of 139

Lab note: `Cc1cccc(/C=N/Nc2cc(N3CCOCC3)nc(OCCc3ccccn3)n2)c1` gave cell viability of 98.9

Lab note: `COC1=CC=C2/C3=N/CCN3\C(=N/C2=C1OC)NC(=O)C4=CC=CN=C4` gave cell viability of 94.4

Lab note: `OCCn1cc(-c2cnc3nnn(Cc4ccc5ncccc5c4)c3n2)cn1` gave cell viability of 138

Lab note: `CNC(=O)C1=CC=C(C)C(=C1)N2C(=C/C(=C(/Br)C2=O)OCC3=C(F)C=C(F)C=C3)\C` gave cell viability of 127

Lab note: `Cn1cc(C[C@@H](N)C(=O)O)c2ccccc21` gave cell viability of 50.1
